EC50, inhibition of IL-6 induced B9 cell proliferation reference
# TESTED_TARGET: human IL-6 (human, UniProt P05231 30-212)
# TEST_NAME: cell-based or functional assay
Report the figure in ng/mL without appending any unit label.

BINDER	ENDPOINT_UNIT	NUMERIC_READOUT
13A8 chimeric mAb (antibody, V domains shown, HEK293; also called 13A8 clone) VH: QSVEESGGRLVTPGTPLTLTCTVSGIDLSSYDMSWVRQAPGKGLEWIGYIYTDSSTWYANWAKGRFTISKTSSTTVDLKMTSLTTEDTATYFCAKGSTDYAFDTRLDLWGPGTLVTVSS VL: NIVMTQTPSPVSGAVGGTVTINCQASQSISNELSWYQQKPGQPPRLLIYRASTLTSGVSSRFKGSGAGTQFTLTISGVECADAATYYCQQGYNSNDVDNVFGGGTKVVVVR	ng/mL	0.034
28D2 chimeric mAb (antibody, V domains shown) VH: QSLGESGGRLVTPGTPLTLTCTVSGLSLSKNAIAWVRQAPGKGLEWIGIIYAGGATTYASWAKGRFTISKSSTTVDLKITSPTTVDTATYFCAREYAGDSYYTGYTQLDLWGPGTLVTVSS VL: ALVMTQTPASVSAAVGGTVTINCQASEDLFSSLAWFQQKPGQPPKLLIYSASTLASGVPSRFSGSGSGTEFTLTISDLECADAATYYCLGLYYYLTPDPIYGFGGGTKVVVV	ng/mL	0.065

Next up:
Query: I would be grateful if you could share the reported EC50, inhibition of IL-6 induced B9 cell proliferation for 9C8 humanized scFv (9C8 Hum scFv v3-1) (scFv, the sentence before it names 9C8 v3-1; purified by 6×His tag; also called 9C8 scFv v3-1; 9C8v3-1) scFv: DIQMTQSPSSVSASVGDRVTITCQASQSISNELSWYQQKPGKAPKLLIYRTSTLASGVPSRFSGSGSGTDFTLTISSLQPEDFATYYCQQGYNSNDVDNVFGGGTKVEIKGGGGSGGGGSGGGGSGGGGSEVQLVESGGGLVQPGGSLRLSCTVSGIDLSSYDMSWVRQAPGKGLEWVGYIYTDSSTYYANWAKGRFTISRDNSKNTLYLQMNSLRAEDTAVYYCARGSTDYAFDTRLDLWGQGTLVTVSSGPPPPPHHHHHH .
Reply: 0.319
